# Target entity: human adenosine A2A receptor (Homo sapiens, UniProt P29274)
# Construct: expressed in transfected cells; host or cells: CHO cells, semliki forest virus expression system; membrane preparation
# Sequence (P29274 whole entry): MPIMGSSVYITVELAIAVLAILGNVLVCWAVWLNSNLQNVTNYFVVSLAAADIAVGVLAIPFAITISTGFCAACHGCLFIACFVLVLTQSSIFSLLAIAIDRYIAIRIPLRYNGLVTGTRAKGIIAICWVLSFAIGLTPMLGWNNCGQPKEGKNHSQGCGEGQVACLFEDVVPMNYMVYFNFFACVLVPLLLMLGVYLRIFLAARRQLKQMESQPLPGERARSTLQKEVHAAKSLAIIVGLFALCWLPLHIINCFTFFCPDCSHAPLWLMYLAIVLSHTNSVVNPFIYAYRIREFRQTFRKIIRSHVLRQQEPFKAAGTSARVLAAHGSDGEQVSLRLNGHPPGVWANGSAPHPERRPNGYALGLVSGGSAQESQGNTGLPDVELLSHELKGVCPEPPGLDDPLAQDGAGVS
# Test method notes: Human adenosine A2A receptor [3H]-SCH-58261 binding assay (SPA)
# Details: recombinant receptor in CHO cell membranes; [3H]-SCH-58261 1 nM; Ki by Cheng-Prussoff; read-out: hA2 (pKi) (converted)
Collected log10(Ki) values appear next to each entry.
Note the log scale: values are log10 of Ki expressed in nM.

Known results for compounds:
- COc1ccc(N2CCOCC2)c2sc(-c3nc4ccc(N5CCOCC5)nc4[nH]3)nc12 [Example 9]: 0.40
- COc1ccc(-c2ccccc2)c2sc(-c3ncc[nH]3)nc12 [Example 4]: 0.70
- COc1ccc(N2CCOCC2)c2sc(-c3nc4c([nH]3)CCN(C(=O)c3ccccc3C)CC4)nc12 [Example 28]: 0.10
- COc1ccc(N2CCOCC2)c2sc(-c3nc4ccc(Cl)nc4[nH]3)nc12 [Example 6]: 0.50

Given the compound COc1ccc(N2CCOCC2)c2sc(-c3nc4c([nH]3)CCN(C(=O)c3ccc(F)cc3)CC4)nc12 [Example 26] , write its reported log10(Ki).
0.00

Report log10(Ki), nothing else, for this compound: COc1ccc(N2CCOCC2)c2sc(-c3ncc(-c4sc5ccccc5c4C)[nH]3)nc12 [Example 20]
1.70

Specify reported log10(Ki) for the compound shown: COc1ccc(N2CCOCC2)c2sc(-c3nc4ccc(N(C)CC5CCOCC5)nc4[nH]3)nc12 [Example 14]
0.50

Determine from records and report log10(Ki) for COc1ccc(N2CCOCC2)c2sc(-c3nc4c([nH]3)CCN(C(=O)C3CC3)CC4)nc12 [Example 30]
0.20

Kindly indicate its recorded log10(Ki). Item: COc1ccc(N2CCOCC2)c2sc(-c3ncc[nH]3)nc12 [Example 1]
1.10

Quote log10(Ki) reported for COc1ccc(N2CCOCC2)c2sc(-c3nc4c([nH]3)COCC4)nc12 [Example 23] please.
0.10

Please list log10(Ki) recorded for the compound COc1ccc(N2CCOCC2)c2sc(-c3nc4ccccc4[nH]3)nc12 [Example 2]
-0.30

# return recorded log10(Ki) for entry COc1ccc(N2CCOCC2)c2sc(-c3nc4ccccc4n3C)nc12 [Example 3]
2.00

Read off the recorded log10(Ki) for COc1ccc(N2CCOCC2)c2sc(-c3nc4c([nH]3)CCCC4)nc12 [Example 22]
0.40

Where do the numbers come from? From patent US7122545B2.
